Hello, the source for this data is the supplement of paper PMC6897291, in case you need it.

- Tested on: RIVA
- Protocol description: growth inhibition by drug plus 177Lu-lilotomab satetraxetan (1 - RLU/untreated control) (fraction); higher = stronger inhibition
- Run conditions: 100 nM; time (day): 6; 177Lu-lilotomab satetraxetan 0.5 ug/ml
Counter-ions that a name gives are not always drawn.
Kindly return TRUE if reported growth inhibition by drug plus 177Lu-lilotomab satetraxetan is no lower than 0.5; return FALSE if it is lower.

Solved cases (2 shown):
Compound | Target of assay | Classification
CNC(=O)c1cc(Oc2ccc(NC(=O)Nc3ccc(Cl)c(C(F)(F)F)c3)cc2)ccn1 | RIVA | TRUE
CC/C(=C(\c1ccccc1)c1ccc(OCCN(C)C)cc1)c1ccccc1 [Tamoxifen Citrate (Nolvadex)] | RIVA | TRUE

## Task Would you say CC#C[C@]1(O)CC[C@H]2[C@@H]3CCC4=CC(=O)CCC4=C3[C@@H](c3ccc(N(C)C)cc3)C[C@@]21C shows growth inhibition by drug plus 177Lu-lilotomab satetraxetan at minimum 0.5?
## Result FALSE

## Task Field entry: CCOc1cc2ncc(C#N)c(Nc3ccc(F)c(Cl)c3)c2cc1NC(=O)/C=C/CN(C)C [Pelitinib (EKB-569)]
## Result FALSE

## Task Try CC(=O)O[C@H]1C(=O)[C@@]2(C)[C@H]([C@H](OC(=O)c3ccccc3)[C@]3(O)C[C@H](OC(=O)[C@H](O)[C@@H](NC(=O)c4ccccc4)c4ccccc4)C(C)=C1C3(C)C)[C@]1(OC(C)=O)CO[C@@H]1C[C@@H]2O next.
## Result TRUE

## Task Please do the same for C[C@]1(c2nc3c(C(N)=O)cccc3[nH]2)CCCN1 as well.
## Result FALSE

## Task Similarly, CN(Cc1cnc2nc(N)nc(N)c2n1)c1ccc(C(=O)N[C@@H](CCC(=O)O)C(=O)O)cc1 [Abitrexate (Methotrexate)] ?
## Result FALSE

## Task What do you have for COCC[n+]1c2c(n(Cc3cnccn3)c1C)C(=O)c1ccccc1C2=O ?
## Result TRUE

## Task How about this compound: O=C(O)C1(C(=O)O)CCC1.[NH2-].[NH2-].[Pt+2]
## Result TRUE

## Task Next record, please: CCN1CCN(Cc2ccc(-c3cc4c(N[C@H](C)c5ccccc5)ncnc4[nH]3)cc2)CC1
## Result FALSE

## Task Another: CN1CCC(CNc2ccc3ncc(-c4cccc(OC(F)(F)F)c4)n3n2)CC1 [SGI-1776 free base]
## Result FALSE

## Task And the next one, O=C(NCCS(=O)(=O)c1ccc(C(F)(F)F)cn1)c1ccc(Cl)cc1 ?
## Result TRUE

## Task Likewise for COc1cc2c(NC3CCN(C)CC3)nc(N3CCCN(C)CC3)nc2cc1OCCCN(C)C ?
## Result FALSE

## Task Another compound to look at: C=CC(=O)N1CCC[C@@H](n2nc(-c3ccc(Oc4ccccc4)cc3)c3c(N)ncnc32)C1
## Result TRUE

## Task What about CO[C@H]1/C=C\C=C(/C)C(=O)NC2=CC(=O)C(NCCN(C)C)=C(C[C@@H](C)C[C@H](OC)[C@H](O)[C@@H](C)/C=C(\C)[C@@H]1OC(N)=O)C2=O [17-DMAG HCl (Alvespimycin)] ?
## Result TRUE

====

Kindly state growth inhibition by drug plus 177Lu-lilotomab satetraxetan for each of the entries shown.
- Test system: RIVA
- Protocol description: growth inhibition by drug plus 177Lu-lilotomab satetraxetan (1 - RLU/untreated control) (fraction); higher = stronger inhibition
- Run conditions: 100 nM; time (day): 4; 177Lu-lilotomab satetraxetan 0.5 ug/ml
Numbers only.

Illustrative cases are given below, each with its answer.
Compound | Test result
Cc1nc(N)sc1-c1ccnc(Nc2ccc(N3CCOCC3)cc2)n1 | 0.486
C=CCc1cccc(/C=N/NC(=O)CN2CCN(Cc3ccccc3)CC2)c1O | 0.492
CC[C@H](CO)Nc1nc(NCc2ccccc2)c2ncn(C(C)C)c2n1 [Roscovitine (Seliciclib, CYC202)] | 0.54

Give measured growth inhibition by drug plus 177Lu-lilotomab satetraxetan for every item shown.
1. Cc1ccnc(NS(=O)(=O)c2ccc(NC(=O)Nc3ccc(S(=O)(=O)Nc4nccc(C)n4)cc3)cc2)n1
2. COc1cc2c(cc1OC)CN(CCc1ccc(NC(=O)c3cccc4c(=O)c5cccc(OC)c5[nH]c34)cc1)CC2
3. NC(=O)c1ccc(I)c([N+](=O)[O-])c1
4. O=C(O)Cc1cccc(OCCCN(Cc2cccc(C(F)(F)F)c2Cl)CC(c2ccccc2)c2ccccc2)c1
5. Cc1ccc(C(=O)N(CCCN)[C@@H](c2nc3cc(Cl)ccc3c(=O)n2Cc2ccccc2)C(C)C)cc1

## Result
[0.533, 0.407, 0.495, 0.858, 0.962]

====

Would you mind telling me the reported growth inhibition by drug plus 177Lu-lilotomab satetraxetan of each entry?
- Tested on: U-2932
- Protocol description: growth inhibition by drug plus 177Lu-lilotomab satetraxetan (1 - RLU/untreated control) (fraction); higher = stronger inhibition
- Run conditions: 10 nM; time (day): 4; 177Lu-lilotomab satetraxetan 1 ug/ml
Structures can show the parent of a compound that is named as a salt.
Answers are plain numbers.

Compound | Test result
CO[C@H]1/C=C\C=C(/C)C(=O)NC2=CC(=O)C(NCCN(C)C)=C(C[C@@H](C)C[C@H](OC)[C@H](O)[C@@H](C)/C=C(\C)[C@@H]1OC(N)=O)C2=O [17-DMAG HCl (Alvespimycin)] | 0.119
CC[C@H](CO)Nc1nc(NCc2ccccc2)c2ncn(C(C)C)c2n1 [Roscovitine (Seliciclib, CYC202)] | 0.0516
COc1cc([C@@H]2c3cc4c(cc3[C@@H](O[C@@H]3O[C@@H]5CO[C@@H](C)O[C@H]5[C@H](O)[C@H]3O)[C@H]3COC(=O)[C@H]23)OCO4)cc(OC)c1O [Etoposide (VP-16)] | -0.0574
CC(C)(C)c1ccc(S(=O)(=O)/C=C/C#N)cc1 | 0.0216

Field: growth inhibition by drug plus 177Lu-lilotomab satetraxetan. Fill in for each record below.
1. CCc1c2c(nc3ccc(OC(=O)N4CCC(N5CCCCC5)CC4)cc13)-c1cc3c(c(=O)n1C2)COC(=O)[C@]3(O)CC [Irinotecan HCl Trihydrate (Campto)]
2. Cc1cccc(-c2nn3c(c2-c2ccnc4ccc(C(N)=O)cc24)CCC3)n1
3. CC[C@]1(O)C[C@@H]2CN(CCc3c([nH]c4ccccc34)[C@@](C(=O)OC)(c3cc4c(cc3OC)N(C)[C@H]3[C@@](O)(C(=O)OC)[C@H](OC(C)=O)[C@]5(CC)C=CCN6CC[C@]43[C@@H]65)C2)C1
4. c1ccc(-c2nn3c(c2-c2ccnc4cc(OCCN5CCOCC5)ccc24)CCC3)nc1
5. CCc1cc(Nc2nccc(-c3c(-c4ccc(OC)c(C(=O)Nc5c(F)cccc5F)c4)nc4ccccn34)n2)c(OC)cc1N1CCC(N2CCN(S(C)(=O)=O)CC2)CC1
6. CN(C)CCCCSC(=N)N
7. Cc1ccc(-c2csc3ncnc(SCCC(=O)O)c23)cc1

## Result
1: 0.04; 2: -0.0664; 3: 0.085; 4: 0.0692; 5: 0.0169; 6: 0.0372; 7: -0.00644

## Task growth inhibition by drug plus 177Lu-lilotomab satetraxetan for Cc1ccc(C(=O)N(CCCN)[C@@H](c2oc3cc(Cl)ccc3c(=O)c2Cc2ccccc2)C(C)C)cc1 ?
## Result 0.974

====

- System: U-2932
- Protocol description: growth inhibition by drug plus 177Lu-lilotomab satetraxetan (1 - RLU/untreated control) (fraction); higher = stronger inhibition
- Run conditions: 10 nM; time (day): 3; 177Lu-lilotomab satetraxetan 1 ug/ml
Result type: growth inhibition by drug plus 177Lu-lilotomab satetraxetan
Answers are plain numbers.

Molecule | Test result
COc1cc([C@@H]2c3cc4c(cc3[C@@H](O[C@@H]3O[C@@H]5CO[C@@H](C)O[C@H]5[C@H](O)[C@H]3O)[C@H]3COC(=O)[C@H]23)OCO4)cc(OC)c1O [Etoposide (VP-16)] | -0.108
CNC(=O)c1cc(COc2nnc(Nc3ccc(Cl)cc3)c3ccoc23)ccn1 | -0.0402

Batch request: growth inhibition by drug plus 177Lu-lilotomab satetraxetan per item, same order as input.
1. COc1cc2ncnc(Nc3ccc(Oc4ccccc4)cc3)c2cc1OC
2. COc1cccc2c1C(=O)c1c(O)c3c(c(O)c1C2=O)C[C@@](O)(C(=O)CO)C[C@@H]3O[C@H]1C[C@H](N)[C@H](O)[C@H](C)O1

## Result
[0.0456, 0.422]

====

- Test system: RIVA
- Protocol description: growth inhibition by drug alone (1 - RLU/untreated control) (fraction); higher = stronger inhibition
- Run conditions: 100 nM; time (day): 3; 177Lu-lilotomab satetraxetan 0 ug/ml
Result type: growth inhibition by drug alone

Molecule | Result type | Test result
Cc1cc(Nc2cc(N3CCN(C)CC3)nc(Sc3ccc(NC(=O)C4CC4)cc3)n2)n[nH]1 | growth inhibition by drug alone | -0.135

For each of the molecules below, note its growth inhibition by drug alone.
1. Nc1nc(F)nc2c1ncn2[C@@H]1O[C@H](CO)[C@@H](O)[C@@H]1O
2. N#Cc1ccc(COC[C@H]2O[C@@H](n3c(NCc4ccc(Cl)c(Cl)c4)nc4c(N)ncnc43)[C@H](O)[C@@H]2O)cc1
3. CC(C)C[C@H](NC(=O)CNC(=O)c1cc(Cl)ccc1Cl)B1OC(=O)C(CC(=O)O)(CC(=O)O)O1

## Result
1. -0.264
2. -0.367
3. 0.319

## Task Fill in: growth inhibition by drug alone of CC(NC(=O)c1ccccc1/N=C/c1c(O)ccc2ccccc12)c1ccccc1 (stereo not given) is ___
## Result -0.00236
